log10 of Ki, Estrogen receptor (Homo sapiens, UniProt P03372), per-entry values.
Could you please treat all values as log10 of Ki in nM?

-- ask Give the reported value of log10 of Ki for this record: `CN1CCN(c2nc(NCCc3ccc(O)cc3)nc(OCCCc3ccccc3)n2)CC1`
-- reply 3.38

-- ask Give the reported value of log10 of Ki for this record: `CN(CCCc1ccc(Cl)cc1)c1nc(NCCc2ccc(O)cc2)nc(N2C[C@@H]3C[C@H]2CN3)n1`
-- reply 3.36

-- ask Give the reported value of log10 of Ki for this record: `CN(CCCc1ccc(Cl)cc1)c1nc(NCCc2ccc(O)cc2)nc(N2CCN(C(=O)COc3ccccc3)CC2)n1`
-- reply 2.76

-- ask Give the reported value of log10 of Ki for this record: `CN(CCCc1ccc(C(F)(F)F)cc1)c1nc(NCCc2ccc(O)cc2)nc(N2CCNCC2)n1`
-- reply 2.68

-- ask Give the reported value of log10 of Ki for this record: `CN1CCN(c2nc(NCCCCc3ccccc3)nc(NCCc3ccc(O)cc3)n2)CC1`
-- reply 2.62

-- ask Give the reported value of log10 of Ki for this record: `COc1ccc(C(=O)N2CCN(c3nc(NCCc4ccc(O)cc4)nc(N(C)CCCc4ccc(Cl)cc4)n3)CC2)cc1`
-- reply 3.05

-- ask Give the reported value of log10 of Ki for this record: `CCC(=O)CCN1CCN(c2nc(NCCc3ccc(O)cc3)nc(N(C)CCCc3ccc(Cl)cc3)n2)CC1`
-- reply 2.40

-- ask Give the reported value of log10 of Ki for this record: `CN(CCCc1ccc(Cl)cc1)c1nc(NCCc2ccc(O)cc2)nc(N2CCN(C(=O)CCc3ccccc3)CC2)n1`
-- reply 3.02

-- ask Give the reported value of log10 of Ki for this record: `CN(CCCc1ccc(Cl)cc1)c1nc(NCCc2ccc(O)cc2)nc(N2CCN(c3ccccc3)CC2)n1`
-- reply 3.80

-- ask Give the reported value of log10 of Ki for this record: `CN(CCCc1ccc(Cl)cc1)c1nc(NCCc2ccc(O)cc2)nc(N2CCN(Cc3ccccc3)CC2)n1`
-- reply 2.08

-- ask Give the reported value of log10 of Ki for this record: `Oc1ccc(CCNc2nc(NC/C=C/c3ccccc3)nc(N3CCNCC3)n2)cc1`
-- reply 3.84

-- ask Give the reported value of log10 of Ki for this record: `C[C@@H]1CN(c2nc(NCCc3ccc(O)cc3)nc(N(C)CCCc3ccc(Cl)cc3)n2)C[C@H](C)N1`
-- reply 1.78

-- ask Give the reported value of log10 of Ki for this record: `CN(C)C(=O)CN1CCN(c2nc(NCCc3ccc(O)cc3)nc(N(C)CCCc3ccc(Cl)cc3)n2)CC1`
-- reply 3.48

-- ask Give the reported value of log10 of Ki for this record: `CN1CCN(c2nc(NCCCc3ccccc3)nc(NCc3ccc(O)cc3)n2)CC1`
-- reply 3.71
